# Study target: SMARCA4-HiBiT (Homo sapiens, UniProt P51532)
# Construct: SMARCA4-HiBiT knock-in Hela monoclonal cell (CS3023226); host or cells: HeLa monoclonal knock-in line (CRISPR HiBiT knock-in at the endogenous locus, heterozygous)
# Sequence (P51532 whole entry): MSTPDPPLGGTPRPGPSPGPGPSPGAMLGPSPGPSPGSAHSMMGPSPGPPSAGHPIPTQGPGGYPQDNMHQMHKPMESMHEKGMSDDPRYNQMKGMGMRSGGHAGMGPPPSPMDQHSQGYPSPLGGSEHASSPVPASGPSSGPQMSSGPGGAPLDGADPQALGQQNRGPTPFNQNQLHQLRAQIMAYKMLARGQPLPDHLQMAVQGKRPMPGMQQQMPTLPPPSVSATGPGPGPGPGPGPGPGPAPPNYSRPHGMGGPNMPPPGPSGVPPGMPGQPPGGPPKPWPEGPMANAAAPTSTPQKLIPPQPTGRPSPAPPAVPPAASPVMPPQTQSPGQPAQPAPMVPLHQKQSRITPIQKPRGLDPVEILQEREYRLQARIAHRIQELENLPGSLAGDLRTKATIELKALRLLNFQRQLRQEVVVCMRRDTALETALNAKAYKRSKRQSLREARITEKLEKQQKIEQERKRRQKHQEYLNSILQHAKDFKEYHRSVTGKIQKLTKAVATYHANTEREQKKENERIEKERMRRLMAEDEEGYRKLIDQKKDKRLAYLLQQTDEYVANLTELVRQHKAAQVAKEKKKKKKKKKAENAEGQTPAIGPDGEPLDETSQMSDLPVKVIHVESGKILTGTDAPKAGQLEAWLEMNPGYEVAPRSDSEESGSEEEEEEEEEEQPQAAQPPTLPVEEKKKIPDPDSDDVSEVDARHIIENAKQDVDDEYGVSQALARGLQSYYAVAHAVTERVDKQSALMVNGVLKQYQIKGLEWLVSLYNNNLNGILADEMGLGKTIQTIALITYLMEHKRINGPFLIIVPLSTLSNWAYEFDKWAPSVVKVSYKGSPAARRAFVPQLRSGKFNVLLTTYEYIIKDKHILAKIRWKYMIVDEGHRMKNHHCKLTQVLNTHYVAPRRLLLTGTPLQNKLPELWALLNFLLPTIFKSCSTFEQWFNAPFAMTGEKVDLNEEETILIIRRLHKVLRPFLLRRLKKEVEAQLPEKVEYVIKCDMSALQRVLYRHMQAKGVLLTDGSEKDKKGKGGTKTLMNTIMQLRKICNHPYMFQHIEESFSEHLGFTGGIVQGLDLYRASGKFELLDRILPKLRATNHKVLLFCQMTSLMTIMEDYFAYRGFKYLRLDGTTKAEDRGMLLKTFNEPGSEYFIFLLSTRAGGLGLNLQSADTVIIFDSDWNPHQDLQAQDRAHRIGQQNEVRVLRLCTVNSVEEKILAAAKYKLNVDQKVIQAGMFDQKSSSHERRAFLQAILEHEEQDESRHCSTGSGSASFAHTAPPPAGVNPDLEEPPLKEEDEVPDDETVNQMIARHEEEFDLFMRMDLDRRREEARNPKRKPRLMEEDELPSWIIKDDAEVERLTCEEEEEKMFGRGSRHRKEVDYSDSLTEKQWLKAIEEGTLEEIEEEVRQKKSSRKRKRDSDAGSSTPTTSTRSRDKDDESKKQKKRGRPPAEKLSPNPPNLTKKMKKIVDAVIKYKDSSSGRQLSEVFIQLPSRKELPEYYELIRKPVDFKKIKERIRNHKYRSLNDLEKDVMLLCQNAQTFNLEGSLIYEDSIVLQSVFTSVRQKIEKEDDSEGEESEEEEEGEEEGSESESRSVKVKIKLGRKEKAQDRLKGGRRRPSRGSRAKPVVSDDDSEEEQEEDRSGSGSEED
# Assay info: SMARCA4 HiBiT degradation assay in HeLa cells
# Assay type: cell-based
# Condition notes: HeLa, 18 hours incubation, read-out: HeLa-HiBit-SM4 Dmax (%)
# Description: HiBiT peptide knock-in of SMARCA2 in LgBiT expressing HEK293T cells was performed by CRISPR-mediated tagging system as described Promega. The homozygous HiBiT knock-in on c-terminus SMARCA2 was confirmed by sanger sequence. SMARCA2-HiBiT knock-in Hela monoclonal cell (CS302366) and SMARCA4-HiBiT knock-in Hela monoclonal cell (CS3023226) were purchased from Promega. The heterozygous HiBiT-knock-in was confirmed by sanger sequence in both SMARCA2-HiBiT and SMARCA4-HiBiT monoclonal cells. […]
Property measured: Dmax

Example entries and their recorded answers appear below.
Compound | Result
O=C1CCC(N2Cc3cc(N4CCC(CN5CCC(OC(=O)N6CCN7c8cc(-c9ccccc9O)nnc8NC[C@H]7C6)CC5)CC4)ccc3C2=O)C(=O)N1 (stereo partly drawn) | 75 to 85%
CC1CN(CC2CN(c3ccc4c(c3)C(=O)N(C3CCC(=O)NC3=O)C4=O)C2)CC(C)N1C(=O)N1CCN2c3cc(-c4ccccc4O)nnc3NC[C@H]2C1 (stereo partly drawn) | 50 to 75%

Prompt: Fill in: Dmax of O=C1CCC(N2C(=O)c3ccc(N4CCN(C5CCN(CCN6CCN7c8cc(-c9ccccc9O)nnc8NC[C@H]7C6)C5)CC4)cc3C2=O)C(=O)N1 (stereo partly drawn) is ___
Response: 50 to 75%

----------
# Study target: SMARCA4-HiBiT (Homo sapiens)
# Construct: SMARCA4-HiBiT knock-in Hela monoclonal cell (CS3023226); host or cells: HeLa monoclonal knock-in line (CRISPR HiBiT knock-in at the endogenous locus, heterozygous)
# Assay info: SMARCA4 HiBiT degradation assay in HeLa cells
# Type: cell-based
# Condition notes: HeLa, 18 hours incubation, read-out: HeLa-HiBit-SM4 Dmax (%)
Property measured: Dmax

Example entries and their recorded answers appear below.
Compound | Dmax
COC1(CN2CCN3c4cc(-c5ccccc5O)nnc4NC[C@H]3C2)CCN(CC2CCN(c3ccc4c(c3)CN(C3CCC(=O)NC3=O)C4=O)CC2)CC1 (some centres unmarked) | > 85%
O=C1CCC(N2Cc3cc(N4CC(CN5CCC(CN6CCN7c8cc(-c9ccccc9O)nnc8NC[C@H]7C6)CC5)C4)ccc3C2=O)C(=O)N1 (some centres unmarked) | > 85%
O=C1CCC(N2C(=O)c3ccc(N4Cc5cnc(N6C[C@@H]7[C@@H](CN8CCN9c%10cc(-c%11ccccc%11O)nnc%10NC[C@H]9C8)[C@@H]7C6)nc5C4)cc3C2=O)C(=O)N1 (some centres unmarked) | ≤ 50%
CC1CN(CC2CCN(c3cc4c(cc3F)C(=O)N(C3CCC(=O)NC3=O)C4=O)CC2)CCC1CN1CCN2c3cc(-c4ccccc4O)nnc3NC[C@H]2C1 (some centres unmarked) | 75 to 85%

Prompt: Fill in: Dmax of O=C1CCC(N2C(=O)c3ccc(N4CCC(CN5CCC(CN6CCN7c8cc(-c9ccccc9O)nnc8NC[C@H]7C6)CC5)C(F)(F)C4)cc3C2=O)C(=O)N1 (some centres unmarked) is ___
Response: > 85%

----------
# Study target: SMARCA4-HiBiT (Homo sapiens, UniProt P51532)
# Construct: SMARCA4-HiBiT knock-in Hela monoclonal cell (CS3023226); host or cells: HeLa monoclonal knock-in line (CRISPR HiBiT knock-in at the endogenous locus, heterozygous)
# Assay info: SMARCA4 HiBiT degradation assay in HeLa cells
# Format: cell-based
# Condition notes: HeLa, 18 hours incubation, read-out: HeLa-HiBit-SM4 Dmax (%)
Property measured: Dmax

Example entries and their recorded answers appear below.
Molecule | Dmax
O=C1CCC(N2Cc3cc(N4CCO[C@@H](CN5C[C@@H]6[C@H](C5)[C@H]6CN5CCN6c7cc(-c8ccccc8O)nnc7NC[C@H]6C5)C4)ccc3C2=O)C(=O)N1 (some centres unmarked) [Example 267] | 75 to 85%
O=C1CCC(N2C(=O)c3ccc(N4CCN(CC5CCC(CN6CCN7c8cc(-c9ccccc9O)nnc8NC[C@H]7C6)CC5)CC4)cc3C2=O)C(=O)N1 (some centres unmarked) [Example 168] | 75 to 85%
O=C1CCC(N2Cc3cc(C4CCN(C5CCCN(CCN6CCN7c8cc(-c9ccccc9O)nnc8NC[C@H]7C6)C5)CC4)ccc3C2=O)C(=O)N1 (some centres unmarked) [Example 211] | > 85%
O=C1CCC(N2Cc3ccc(N4CC[C@H](CN5CCN(C(=O)N6CCN7c8cc(-c9ccccc9O)nnc8NC[C@H]7C6)CC5)[C@@H](F)C4)cc3C2=O)C(=O)N1 (some centres unmarked) [Example 205] | 75 to 85%

Prompt: Fill in: Dmax of CC1CN(CCCC2CCN(c3cccc4c3C(=O)N(C3CCC(=O)NC3=O)C4=O)CC2)CCC1N1CCN2c3cc(-c4ccccc4O)nnc3NC[C@H]2C1 (some centres unmarked) [Example 124] is ___
Response: 50 to 75%

Prompt: Fill in: Dmax of O=C1CCC(N2Cc3ccc(N4CCC(CN5CCC(CN6CCN7c8cc(-c9ccccc9O)nnc8NC[C@H]7C6)CC5CO)CC4)cc3C2=O)C(=O)N1 (some centres unmarked) [Example 235] is ___
Response: > 85%

Prompt: Fill in: Dmax of O=C1CCC(N2Cc3ccc(C4CCN(CCN5CCC(CN6CCN7c8cc(-c9ccccc9O)nnc8NC[C@H]7C6)CC5)CC4)cc3C2=O)C(=O)N1 (some centres unmarked) [Example 120] is ___
Response: > 85%

Prompt: Fill in: Dmax of O=C1CCC(N2C(=O)c3ccc(N4CCC(NC56CC(CN7CCN8c9cc(-c%10ccccc%10O)nnc9NC[C@H]8C7)(C5)C6)CC4)cc3C2=O)C(=O)N1 (some centres unmarked) [Example 135] is ___
Response: 50 to 75%
